Entry source: PubChem BioAssay

inhibition by entry:
Biological target: PEG-3 (UniProt Q6IN02)
Sequence (Q6IN02 whole entry, looked up): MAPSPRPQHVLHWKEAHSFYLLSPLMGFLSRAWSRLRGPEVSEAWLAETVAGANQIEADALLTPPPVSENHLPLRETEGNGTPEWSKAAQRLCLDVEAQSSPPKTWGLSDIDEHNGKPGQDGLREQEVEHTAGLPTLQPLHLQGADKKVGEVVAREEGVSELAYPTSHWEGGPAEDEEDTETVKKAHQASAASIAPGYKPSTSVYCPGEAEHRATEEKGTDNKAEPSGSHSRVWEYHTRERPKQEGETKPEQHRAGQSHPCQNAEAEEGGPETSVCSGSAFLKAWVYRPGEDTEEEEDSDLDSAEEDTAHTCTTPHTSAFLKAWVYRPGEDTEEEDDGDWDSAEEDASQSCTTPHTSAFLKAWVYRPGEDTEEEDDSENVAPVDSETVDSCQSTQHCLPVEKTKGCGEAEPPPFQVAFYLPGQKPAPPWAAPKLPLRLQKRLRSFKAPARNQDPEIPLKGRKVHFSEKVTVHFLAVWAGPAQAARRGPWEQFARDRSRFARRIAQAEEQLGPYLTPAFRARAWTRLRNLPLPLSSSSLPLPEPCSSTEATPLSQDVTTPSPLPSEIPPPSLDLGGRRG
Assay: Peg3 promoter luciferase inhibitors, potency, dose response, cell-based, HeLa, CREF/GAPDH counter-screen panel (AID 624167)
Settings: CREF/GAPDH counter-screens; HeLa PEG-Prom luciferase reporter, overnight, run 1, dose range 1, at 100 µM (top of the series) unless noted
Just the number please, in %, no unit attached.

Name the reported inhibition value associated with the compound CCCn1c(=N)n(CC(=O)c2ccc(Cl)cc2)c2ccccc21
101

Now this one: O=C1NC(Cc2ccc(O)cc2)c2nc3ccc(F)cc3c(=O)n2-c2cc3ccccc3cc21 (stereo unspecified)
100

And the next one, Cc1ccc(C2(CCNCc3ccc(N(C)C)cc3)CCOC(C(C)C)C2)cc1 (stereo unspecified) ?
99.6

What do you get for O=C(/C=C/c1cc(Br)ccc1O)c1ccco1 ?
102

Entry CC1CC(C)C(=O)C(C(CC2CC(=O)NC(=O)C2)OC(=O)CC(=O)c2ccccc2)C1 (stereo unspecified) please
72.4

Then Cc1ccc(C)c(S(=O)(=O)N2CCN(c3ncnc4sccc34)CC2)c1 ?
90.1

Could you do the same for Cc1cc(C(=O)Nc2cccc(C(=O)O)c2)oc1C , please?
88.1

Thanks! And CCCN(CC(=O)Nc1cc(Cl)cc(Cl)c1)CC(=O)Nc1ccc(F)c(F)c1F ?
101

Quick one: CN(C)CC1CCC/C(=C/c2ccc(Cl)cc2)C1=O (stereo unspecified)
102

Try CN(C)S(=O)(=O)c1cccc(NC(=O)CSc2cccc3cccnc23)c1 next.
99.3

Also, O=C(NCCc1ccccc1)c1ccc2c(c1)OCCCO2 please.
101

* * *

Assay: inhibitors of PAF-induced NFkB signaling in CF airway cells, dose response, cell-based, uHTS hits, panel, cytotoxicity readout (AID 624344)
Conditions: CF bronchial epithelial cells, PAF-induced NFkB reporter inhibition, with PAF, run 2; at 79 µM (top of the series) unless noted
attribute measured: inhibition (%)
Use % as the unit, but write only the number.

The examples below pair each entry with its known result.
{"molecule": "CC[C@H](CO)Nc1nc(Nc2cccc(Cl)c2)c2ncn(C(C)C)c2n1", "uom": "%", "assay value": 108}
{"molecule": "CCC(=NCCc1c(C)[nH]c2ccc(C)cc12)C1=C(O)CC(c2ccccc2)CC1=O (stereo unspecified)", "uom": "%", "assay value": 92}
{"molecule": "O=C(Nc1ccccc1)Nc1ncc([N+](=O)[O-])s1", "uom": "%", "assay value": 96.7}

Bench note: what inhibition did CCC1=C(CC2NCCc3ccccc32)CC2c3cc(OC)c(OC)cc3CCN2C1 (stereo unspecified) show?
105

Next molecule: Cc1ccc(S(=O)(=O)Nc2nc3ccccc3nc2Nc2cccc(S(=O)(=O)N3CCCC3)c2)cc1
103

Note, next up: COc1cccc(-c2ccc3ncnc(NCc4cc(C)cs4)c3c2)c1
116

Likewise for CC1CCN(Cc2c(C(=O)N/N=C/c3ccc(C(C)(C)C)cc3)nnn2-c2nonc2N)CC1 ?
108

What do you get for CS(=O)(=O)c1ncc(Cl)c(C(=O)Nc2ccc(OC(F)F)cc2)n1 ?
90.1

* * *

Molecular target: Caspase-3 (Homo sapiens)
Assay: caspase-3 protease inhibitors, confirmation, selectivity assay for SENP inhibitor project, biochemical, single concentration (AID 488918);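 further: plate controls were enzyme with DMSO for no effect and wells without caspase-3 for full effect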
Settings: purified caspase-3, Z-DEVD-aminoluciferin luminescence, 60 min; at 12.5 µM
The other results are listed elsewhere or left out. Calls of active or inactive are those of the source.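 The calls were made as follows: active = mean inhibition above about 50% (limit read from the data); inactive = the rest.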
The reply should name one outcome from active, inactive

{"compound": "C=CCNC(=S)N1CCN(CCN=Cc2c(C)[nH]n(-c3ccc([N+](=O)[O-])cc3)c2=O)CC1", "target entity": "Caspase-3 (Homo sapiens)", "category": "active"}
{"compound": "COc1ccccc1C(=O)Nc1ccc(NC(=O)c2ccco2)c(C)c1", "target entity": "Caspase-3 (Homo sapiens)", "category": "active"}
{"compound": "Cc1cc(N=Nc2ccc3ccccc3c2)ccc1O", "target entity": "Caspase-3 (Homo sapiens)", "category": "active"}
{"compound": "CC1=CC(=C(C#N)c2nc3ccccc3s2)C=C(C)N1c1ccc(F)cc1F", "target entity": "Caspase-3 (Homo sapiens)", "category": "inactive"}
{"compound": "c1ccc(-c2cc(-c3ccccc3)[nH]n2)cc1", "target entity": "Caspase-3 (Homo sapiens)", "category": "inactive"}
{"compound": "COc1ccc(-n2ncc3c(SCC(=O)NNC(C)=O)ncnc32)cc1", "target entity": "Caspase-3 (Homo sapiens)", "category": "active"}

For Cc1cccc(/C=N/NC(=O)CNc2cccc3ccccc23)n1 , which call appears in the assay record?
inactive

Now this one: COc1ccccc1N=Cc1c(O)c2ccccc2oc1=O
inactive

Now the same for C1=C(CCNc2ncnc3c2cnn3-c2ccccc2)CCCC1
inactive

Please answer likewise for COc1ccc(C(=O)Nc2ccccc2C(=O)N/N=C/c2ccccc2OC)cc1
active

Quick one: COc1cccc(C(=O)c2cc3ccc(O)cc3oc2=O)c1
active

* * *

Recorded activity, one value per entry.
Test: caspase-8 TRAIL sensitization, hit retest, confirmation, cell-based, NB7+caspase-8, with/without TRAIL, luminescence panel (AID 651596)
Settings: NB7 neuroblastoma + caspase-8, without TRAIL, luminescence viability, without TRAIL, mean of runs, at 10 µM
A complete answer gives the number followed by the unit.

Example results:
{"compound": "COc1ccc(-c2cn3cc(C)ccc3n2)cc1Br", "assay value": "77.3%"}
{"compound": "CC(=O)Nc1sc2c(c1-c1nc3ccccc3s1)CN(C(C)C)CC2", "assay value": "73.8%"}
{"compound": "Cc1ccc2cc(NC(=O)c3cccc(F)c3)ccc2n1", "assay value": "10.6%"}
{"compound": "C#CCN(C[C@@H]1[C@@H](OC(=O)NCc2ccccc2F)[C@@H](OC(=O)NCc2ccccc2F)Cn2c(=O)ccc(=O)n21)S(=O)(=O)c1ccc(C)cc1", "assay value": "93.6%"}

Please give the measured activity for this compound: O=C(Nc1ccc2c(c1)OCCO2)c1cc2ccccc2o1
76.8%

Same question for COc1cccc(NC(=O)c2ccc3c(c2)OCO3)c1 please.
30.6%

Request: Cc1ccc2sc(NC(=O)CSc3nc(C)cc(C)c3C#N)nc2c1
57.3%

What about this compound? Cc1ccc(C(=O)Nc2ccc3ccccc3n2)cc1
58.2%

Thanks! And CCOc1ccc(C(=O)Nc2cc(C)c3c(=O)oc4ccccc4c3n2)cc1 ?
62.1%

* * *

Test: inhibitors of PAF-induced NFkB signaling in CF airway cells, dose response, cell-based, uHTS hits, panel, cytotoxicity readout (AID 624344)
Details: CF bronchial epithelial cells, PAF-induced NFkB reporter inhibition, with PAF, run 2; at 79 µM (top of the series) unless noted
attribute measured: inhibition (%)
The reply should be a number in %, with the unit left off.

// lookup inhibition for COC(=O)c1ccc(-c2ccc(OC)c([C@H]3[C@H]4C=CC[C@@H](C)[C@@H]4C(=O)N3Cc3ccccc3)c2)cc1
80

Next compound: O=C(NC1CCCC(C(F)(F)F)C1)c1ccc([N+](=O)[O-])o1 (centres undefined)
103

Consider next the compound C=CC[C@@H](CC(=O)N(CCO)Cc1ccccc1)C(=O)NC[C@H](OC(=O)[C@@H](CC=C)Cc1ccc(F)cc1)c1ccccc1 in the same way.
102

* * *

The molecules listed here are annotated with their inhibition.
Assay: inhibitors of PAF-induced NFkB signaling in CF airway cells, dose response, cell-based, uHTS hits, panel, cytotoxicity readout (AID 624344)
Settings: CF bronchial epithelial cells, PAF-induced NFkB reporter inhibition, with PAF, run 1; at 79 µM (top of the series) unless noted
Numeric answer only, unit % assumed.

{"molecule": "CC(C)(C)OC(=O)NCC(=O)Oc1cc2oc(=O)cc(-c3ccccc3)c2cc1Cl", "inhibition (%)": 117}

What value of inhibition has been recorded for this entry: C[C@@H]1CN([C@H](C)CO)C(=O)c2cc(NC(=O)Nc3ccc(C(F)(F)F)cc3)ccc2O[C@H]1CN(C)S(=O)(=O)c1cccs1
113

// repeat for CN1CCC(OC(=O)c2cc3cc(Cl)cc(Cl)c3oc2=O)CC1 and report
108

* * *

Molecular target: Sentrin-specific protease 8 (Homo sapiens) (UniProt Q96LD8)
Sequence (Q96LD8 whole entry, looked up): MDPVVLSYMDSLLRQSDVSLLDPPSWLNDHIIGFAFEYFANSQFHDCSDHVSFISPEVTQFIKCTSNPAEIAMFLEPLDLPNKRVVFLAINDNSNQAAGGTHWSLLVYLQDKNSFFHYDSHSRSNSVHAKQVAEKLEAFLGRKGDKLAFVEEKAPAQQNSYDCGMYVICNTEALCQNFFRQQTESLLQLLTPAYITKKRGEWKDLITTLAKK
Experiment: SENP8 protease inhibitors, retest, confirmation, biochemical, luminescence, single concentration (AID 488912)
Details: Recombinant SENP8, Z-RLRGG-aminoluciferin luminescence, 60 min; at 12.5 µM; stronger effect = higher value
This is one part of the list.
Param threshold (50%) applies to inhibition; output Y when value >= threshold, N when value < threshold.

// below: answered compounds
{"sample smiles": "CCOC(=O)c1cnc2[nH]c3ccccc3n2c1=O", "target entity": "Sentrin-specific protease 8 (Homo sapiens) (UniProt Q96LD8)", "category": "N"}
{"sample smiles": "CC(=NCc1ccco1)c1c(C(F)(F)F)[nH]n(-c2nc3ccccc3s2)c1=O", "target entity": "Sentrin-specific protease 8 (Homo sapiens) (UniProt Q96LD8)", "category": "Y"}
{"sample smiles": "Oc1ccccc1-c1cc(-c2ccc(Cl)cc2)n[nH]1", "target entity": "Sentrin-specific protease 8 (Homo sapiens) (UniProt Q96LD8)", "category": "Y"}
{"sample smiles": "O=C(Nc1ccccc1)c1ccc(NC(=O)c2cccs2)cc1", "target entity": "Sentrin-specific protease 8 (Homo sapiens) (UniProt Q96LD8)", "category": "N"}
{"sample smiles": "Cc1ccc(C(=O)N/N=C\\c2cc(Br)c(Br)o2)cn1", "target entity": "Sentrin-specific protease 8 (Homo sapiens) (UniProt Q96LD8)", "category": "N"}

Tell me whether inhibition is at least 50% here: Cc1cccc(NC(=O)/C=C/c2ccc3c(c2)OCO3)n1
Y
